Origin of the recorded values: the RNAGym collection of RNA variant scans (doi:10.7554/elife.90254)

B1: LINE1-full (parent)
chain: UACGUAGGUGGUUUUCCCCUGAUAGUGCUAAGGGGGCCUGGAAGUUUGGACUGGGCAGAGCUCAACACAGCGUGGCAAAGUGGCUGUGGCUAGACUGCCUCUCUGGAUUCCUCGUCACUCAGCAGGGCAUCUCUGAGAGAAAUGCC

Variants of: B1
Test: self-cleavage, relative activity (ratio to wild type); higher = more cleavage; in vitro, sequencing; the parent is a self-cleaving ribozyme
Tick true (1) if self-cleavage is 1 or greater. Tick false (0) if self-cleavage is less than 1.

change: U23C A57G
qualitativeLabel: true (1)

change: G8A U15C
qualitativeLabel: true (1)

change: C76U A117U
qualitativeLabel: true (1)

Tell me whether self-cleavage is at least 1 here: U9C C95U
false (0)

Tell me whether self-cleavage is at least 1 here: A6G U23C
false (0)

Tell me whether self-cleavage is at least 1 here: A2G A142G
false (0)

Tell me whether self-cleavage is at least 1 here: U87A A129U
false (0)

Tell me whether self-cleavage is at least 1 here: A30U C38A
false (0)

Tell me whether self-cleavage is at least 1 here: U62A U81A
false (0)

Tell me whether self-cleavage is at least 1 here: A24G A65G
false (0)

Tell me whether self-cleavage is at least 1 here: G72A U85C
false (0)
